switch fluorescence ratio values, listed per item
System: ATP;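 note: ATP exposure 15 min at 22 °C before imaging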
Test: switch fluorescence ratio, 500 uM ATP over buffer (Cy3 cluster intensity, sum of 5 cycles each) (fold (ratio)); higher = stronger signal-on switching upon ATP binding; sequences stand for … in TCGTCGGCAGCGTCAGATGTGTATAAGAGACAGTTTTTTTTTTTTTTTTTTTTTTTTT…TC
Details: aptamer strand: ATP DNA aptamer (quencher-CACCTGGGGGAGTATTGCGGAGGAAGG + anchor), 100 nM annealed; ATP concentration: 500 uM
Form rule: numeric answer, no unit written next to it.

Reference set, count: 6
| SEQUENCE | EXPERIMENTAL_SYSTEM | switch fluorescence ratio |
| --- | --- | --- |
| CCTGGGGCAG | ATP | 1.17 |
| CGGCATATAG | ATP | 1.99 |
| GACCCGCTTG | ATP | 1.06 |
| TCTCACGGAA | ATP | 1.68 |
| TAGGGCTTAA | ATP | 0.993 |
| ATAAGCGTCG | ATP | 1.02 |

Lookup result for CAATTGCTGG ; measured switch fluorescence ratio: 0.949

Lookup result for AGAGGGTCCT ; measured switch fluorescence ratio: 1.03

Lookup result for TTACGTAGAT ; measured switch fluorescence ratio: 1.12

Lookup result for CTGGGACAAA ; measured switch fluorescence ratio: 1

Lookup result for TATTGGCTAA ; measured switch fluorescence ratio: 0.987

Lookup result for TGCATGTTGG ; measured switch fluorescence ratio: 0.994

Lookup result for TTCATTCCGA ; measured switch fluorescence ratio: 1.29

Lookup result for TTATCTTACA ; measured switch fluorescence ratio: 0.996

Lookup result for GCTCGACTTT ; measured switch fluorescence ratio: 1.02

Lookup result for TTGTGGGGGA ; measured switch fluorescence ratio: 1.02

* * *

Tested on: ATP;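 note: ATP exposure 15 min at 22 °C before imaging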
Experiment: switch fluorescence ratio, 500 uM ATP over buffer (Cy3 cluster intensity, sum of 5 cycles each) (fold (ratio)); higher = stronger signal-on switching upon ATP binding; sequences stand for … in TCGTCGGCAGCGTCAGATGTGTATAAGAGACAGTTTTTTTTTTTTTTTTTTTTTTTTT…TC
Conditions: aptamer strand: ATP DNA aptamer (quencher-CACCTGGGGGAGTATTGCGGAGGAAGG + anchor), 100 nM annealed; ATP concentration: 500 uM
switch fluorescence ratio values, listed per item
Form rule: numeric answer, no unit written next to it.

| SEQUENCE | MEAS_VALUE |
| --- | --- |
| ATAAGGGCTA | 0.99 |
| TTTGCCGCCC | 1.15 |
| GTGTGAGTAG | 1.02 |
| TCTGCTAAAG | 1.01 |

Okay, now this sequence:
Record TCTGTGCTGG ; system ATP; switch fluorescence ratio = 0.98

* * *

switch fluorescence ratio values, listed per item
System: ATP;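 note: ATP exposure 15 min at 22 °C before imaging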
Experiment: switch fluorescence ratio, 500 uM ATP over buffer (Cy3 cluster intensity, sum of 5 cycles each) (fold (ratio)); higher = stronger signal-on switching upon ATP binding; sequences stand for … in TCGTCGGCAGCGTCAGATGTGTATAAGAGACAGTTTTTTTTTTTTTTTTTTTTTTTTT…TC
Conditions: aptamer strand: ATP DNA aptamer (quencher-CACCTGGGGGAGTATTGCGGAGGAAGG + anchor), 100 nM annealed; ATP concentration: 500 uM

| SEQUENCE | EXPERIMENTAL_SYSTEM | switch fluorescence ratio |
| --- | --- | --- |
| AGGAGATACT | ATP | 1.09 |

Lookup result for AGCAGATAGG ; measured switch fluorescence ratio: 1.03

Lookup result for AGGCAACGGT ; measured switch fluorescence ratio: 1.01

Lookup result for TTAAAGTCGG ; measured switch fluorescence ratio: 1
